Attribute: pIC50
Test system: MDA-MB-231
Experiment: Cytotoxicity against human MDA-MB-231 cells assessed as reduction in cell viability incubated for 72 hrs by MTT assay
Type: functional, cell-based
Details: MDA-MB-231, 72 h
Scale explanation: pIC50 corresponds to minus log10 of a concentration expressed in moles per litre.

Some solved cases for reference:
CCC(=O)Nc1nc2ccc(-c3ccc4ncn(CCCN5CCOCC5)c(=O)c4c3)cc2[nH]1: 5.91
CCC(=O)Nc1nc2ccc(-c3ccc4ncn(CCc5c[nH]c6ccccc56)c(=O)c4c3)cc2[nH]1: 6.26

We next turn to a different molecule, shown below.
# input Report pIC50 for CCC(=O)Nc1nc2ccc(-c3ccc4ncn(C)c(=O)c4c3)cc2[nH]1
# output 4.87
